- experimental system: T1, human BR3 extracellular domain (human, UniProt Q96RJ3 1-61)
- T1 construct: biotinylated where used as tracer; also called hBR3-ECD; BR3-ECD
- experiment description: SPR, BR3 ECD on chip;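 also: Anti-BR3 antibodies passed over the chip at high flow in PBS with 0.05% polysorbate 20, on and off rates fitted together globally to a 1:1 binding model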
Give Kd for every item shown.
Numbers only, in nM.

Sample answers from the record:
binder	metric name	value measured
Hu9.1-88 Fab (Fab, V domains shown, Fab) VH: EVQLVESGGGLVQPGGSLRLSCAASGFPVTGSYVSWVRQAPGKGLEWVGFIRDKANGYTTEYNPSVKGRFTISRDTSKNTLYLQMNSLRAEDTAVYYCAQVRRALDYWGQGTLVTVSS VL: DIQMTQSPSSLSASVGDRVTITCKSSQSLLYSSNQNNYLAWYQQKPGKAPKLLIYWASTRESGVPSRFSGSGSGTDFTLTISSLQPEDFATYYCQQYYTYPYTFGQGTKVEIKR	Kd	0.736
Hu2.1-40 Fab (Fab, V domains shown, Fab) VH: EVQLVESGGGLVQPGGSLRLSCAASGDSITRGYWNWVRQAPGKGLEWVGYINYSGTTYYNPSLKSRFTISRDTSKNTFYLQMNSLRAEDTAVYYCATTLPYGAMDYWGQGTLVTVSS VL: DIQMTQSPSSLSASVGDRVTITCRASESVDDYGISFMHWYQQKPGKAPKLLIYRASDLESGVPSRFSGSGSGTDFTLTISSLQPEDFATYYCQQTSKDPWTFGQGTKVEIKR	Kd	8.67

Inquiry: I would be grateful if you could share the reported Kd for Hu2.1-RL Fab (Fab, V domains shown, Fab) VH: EVQLVESGGGLVQPGGSLRLSCAASGDSITRGYWNWVRQAPGKGLEWVGYINYSGTTYYNPSLKSRFTISRDTSKNTLYLQMNSLRAEDTAVYYCATPHTYGAMDYWGQGTLVTVSS VL: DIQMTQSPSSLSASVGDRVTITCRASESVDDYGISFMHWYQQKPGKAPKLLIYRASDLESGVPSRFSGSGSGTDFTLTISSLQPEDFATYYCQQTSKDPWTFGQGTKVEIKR .
Reply text: 10
